Reference for the values: patent US11053226B2

// reported IC50 for each item listed
# Test system: Phosphorylation of ERK1/2 in MIA PaCa-2 cells
# assay-method-text: Phospho-ERK1/2 MSD Assay
# Format: cell-based
# details: Homo sapiens, MIA PaCa-2, read-out: pERK IC50 (4 h); 4 h compound treatment; MiaPaCa-2 cells
In your response, the unit should come after the numeric value.

compound	IC50
C=CC(=O)N1CC(NC(=O)Cn2cc(I)c3cc(Br)cc(CC)c32)C1 [Example 87]	14.7 µM
C=CC(=O)N1CC(NC(=O)Cn2c(C)c(-c3ccccc3C(C)C)c3cc(Cl)ccc32)C1 [Example 5-3]	2.06 µM
C=CC(=O)N1CC(NC(=O)Cn2c(C)c(-c3ccccc3C)c3cc(Cl)ccc32)C1 [Example 121]	31.2 µM

We now examine a further compound.
The recorded IC50 for entry C=CC(=O)N1CC(NC(=O)Cn2cc(-c3ccccc3OC)c3cc(Br)ccc32)C1 [Example 151] equals 51.2 µM

* * *

# assay-system: GDP-bound KRAS protein (aa 1-169), containing both G12C and C118A amino acid substitutions (Homo sapiens (Human), UniProt P01116, C118A/G12C)
# Sequence (P01116 other isoform, or with tags, fused parts or gaps G12C/C118A): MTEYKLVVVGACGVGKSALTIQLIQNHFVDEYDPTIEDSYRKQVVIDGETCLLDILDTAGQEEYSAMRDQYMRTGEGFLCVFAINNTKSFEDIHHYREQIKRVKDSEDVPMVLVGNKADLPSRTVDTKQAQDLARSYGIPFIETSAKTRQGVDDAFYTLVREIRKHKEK
# assay-method-text: Coupled Nucleotide Exchange Assay
# Assay type: biochemical
# details: read-out: Coupled Exchange IC50 (2 h); 2 h compound pre-incubation
measured-quantity: pIC50
Answer as the number alone; pIC50 is minus log10 of concentration in mol/L.

Below are worked cases with known answers.
structure-notation	measured-number
C=CC(=O)N1CC(NC(=O)Cn2cc(Cl)c3cc(Br)ccc32)C1	5.29
C=CC(=O)N1CC(N(C)C(=O)Cn2cc(C(=O)N3CCc4c(cccc4OC)C3)c3cc(Br)ccc32)C1	6.23
C=CC(=O)N1CC(N(C)C(=O)Cn2cc(I)c3cc(I)ccc32)C1	5.62
C=CC(=O)N1CC(N(C)C(=O)Cn2c(C)c(C(=O)N3CCc4c(cccc4OC)C3)c3cc(Cl)ccc32)C1	6.68
C=CC(=O)N1CC(N(C)C(=O)Cn2cc(C(=O)N3CCc4c(ccnc4OC)C3)c3c(Cl)c(Cl)ccc32)C1	6.35

The recorded pIC50 for entry C=CC(=O)N1CC(NC(=O)Cn2c(C)c(C(=O)N3CCc4c(ccnc4OC)C3)c3cc(Cl)ccc32)C1 equals 6.23

The recorded pIC50 for entry C=CC(=O)N1CC(NC(=O)Cn2ccc3cc(I)ccc32)C1 equals 4.65

* * *

# assay-system: GDP-bound KRAS protein (aa 1-169), containing both G12C and C118A amino acid substitutions (Homo sapiens (Human), UniProt P01116, C118A/G12C)
# assay-method-text: Coupled Nucleotide Exchange Assay
# Assay type: biochemical
# details: read-out: Coupled Exchange IC50 (2 h); 2 h compound pre-incubation
Binary label based on IC50 with cut-off 20000 nM: below gives satisfied, not below gives not satisfied.

As a guide, the following entries are already answered.
structure-notation	label-class
C=CC(=O)N1CC(NC(=O)Cn2cc(C(=O)N(C)CC(=O)Nc3ccc(Cl)c(C(F)(F)F)c3)c3cc(Br)ccc32)C1	satisfied
C=CC(=O)N1CC(NC(=O)Cn2cc(C#N)c3cc(Br)ccc32)C1	not satisfied
C=CC(=O)N1CC(NC(=O)Cn2c3c(c4cc(Br)ccc42)CCNC3)C1	not satisfied
C=CC(=O)N1CC(N(C)C(=O)Cn2c(C)c(C(=O)N3CCN(c4ccc(C#N)cn4)C[C@@H]3C)c3cc(Br)ccc32)C1	satisfied
C=CC(=O)N1CC(NC(=O)Cn2c(C)c(-c3cnccc3C(C)C)c3cc(Cl)ccc32)C1	satisfied

Next up:
Prompt: Take the compound C=CC(=O)N1CC(NC(=O)Cn2c(C)c(-c3ccccc3C3CC3)c3cc(Cl)ccc32)C1 and say whether its IC50 is less than 20000 nM.
Completion: satisfied

* * *

// reported pIC50 for each item listed
# Tested on: Phosphorylation of ERK1/2 in A549 cells
# assay-method-text: Phospho-ERK1/2 MSD Assay (A549)
# Type: cell-based
# details: Homo sapiens, read-out: pERK IC50 (4 h), 4 h compound treatment
pIC50: −log10 of the molar value.

The recorded pIC50 for entry C=CC(=O)N1CC(NC(=O)Cn2cc(I)c3ccc(Br)cc32)C1 [Example 70] equals < 4.00

* * *

// reported pIC50 for each item listed
# assay-system: GDP-bound KRAS protein (aa 1-169), containing both G12C and C118A amino acid substitutions (Homo sapiens (Human), UniProt P01116, C118A/G12C)
# assay-method-text: Coupled Nucleotide Exchange Assay
# Type: biochemical
# details: read-out: Coupled Exchange IC50 (2 h); 2 h compound pre-incubation
Answer as the number alone; pIC50 is minus log10 of concentration in mol/L.

Below are worked cases with known answers.
structure-notation	pIC50
C=CC(=O)N1CC(NC(=O)Cn2c3ccccc3c3c(Br)cccc32)C1	5.69
C=CC(=O)N1CC(NC(=O)Cn2c(C)c(-c3ccccc3OC)c3cc(Cl)ccc32)C1	5.56
C=CC(=O)N1CC(NC(=O)Cn2c(C)c(-c3cccc4nc(C)ccc34)c3cc(Cl)ccc32)C1	5.95
C=CC(=O)N1CC(NC(=O)Cn2cc(-c3ccc4ccccc4c3)c3cc(Br)cc(C)c32)C1	5.02
C=CC(=O)N1CC(N(C)C(=O)Cn2c(CC3CC3)c(C(=O)N3CCc4c(cccc4OC)C3)c3cc(Cl)cc(C)c32)C1	7.00
C=CC(=O)N1CC(N(C)C(=O)Cn2c(C)c(C(=O)N3CCN(c4ccc(C)cn4)CC3)c3cc(Cl)cc(C)c32)C1	6.07
C=CC(=O)N1CC(N(C)C(=O)Cn2c(C)c(C(=O)N3CCN(c4ccc(C#N)cn4)CC3)c3cc(Br)ccc32)C1	6.11
C=CC(=O)N1CC(NC(=O)Cn2c(C)c(C(=O)N3CCc4c(cccc4OC)C3)c3cc(Br)cc(C)c32)C1	6.96
C=CC(=O)N1CC(NC(=O)Cn2cc(-c3cccnc3)c3cc(-c4cccnc4)ccc32)C1	3.79
C=CC(=O)N1CC(NC(=O)Cn2c(C(=O)OC)c(I)c3cc(Br)ccc32)C1	5.70

The recorded pIC50 for entry C=CC(=O)N1CC(NC(=O)Cn2cc(I)c3cc(Br)c(C)cc32)C1 equals 5.24

The recorded pIC50 for entry C=CC(=O)N1CC(NC(=O)Cn2c(C(=O)NCc3ccccc3)c(I)c3cc(Br)ccc32)C1 equals 3.97

* * *

# Test system: Phosphorylation of ERK1/2 in A549 cells
# assay-method-text: Phospho-ERK1/2 MSD Assay (A549)
# Format: cell-based
# details: Homo sapiens, A549, 4 h, read-out: pERK IC50 (4 h, A549), 4 h compound treatment
pIC50: −log10 of the molar value.
measured-quantity: pIC50

Below are worked cases with known answers.
compound	pIC50
C=CC(=O)N1CC(N(C)C(=O)Cn2c(C)c(C(=O)N3CCN(c4ccc(C#N)cn4)C[C@@H]3C)c3cc(Br)ccc32)C1 [Example 52]	< 4.00
C=CC(=O)N1CC(NC(=O)Cn2cc(C(=O)NCCOc3ccccc3C)c3cc(Br)ccc32)C1 [Example 156]	< 4.00
C=CC(=O)N1CC(NC(=O)Cn2c(CC)c(C(=O)N3CCN(c4ccc(C#N)cn4)C[C@H]3C)c3cc(Cl)cc(C)c32)C1 [Example 1-3]	< 4.00

The recorded pIC50 for entry C=CC(=O)N1CC(NC(=O)Cn2c(C)c(C(=O)N3CCc4ccccc4[C@@H]3C)c3cc(Br)cc(C)c32)C1 [Example 2-2-2] equals 4.21

The recorded pIC50 for entry C=CC(=O)N1CC(NC(=O)Cn2c(C)c(C(=O)N3CCN(c4ccc(C#N)cn4)CC3)c3cc(Br)ccc32)C1 [Example 83] equals < 4.00

The recorded pIC50 for entry C=CC(=O)N1CC(NC(=O)Cn2c(C)c(C(=O)N3CCc4c(cccc4OC)C3)c3cc(Br)cc(C)c32)C1 [Example 2-1] equals < 4.00

The recorded pIC50 for entry C=CC(=O)N1CC(NC(=O)Cn2c(C)c(C(=O)C3CCc4ccccc4C3)c3cc(Br)ccc32)C1 (stereo not shown) [Example 65] equals 5.46

* * *

# assay-system: GDP-bound KRAS protein (aa 1-169), containing both G12C and C118A amino acid substitutions (Homo sapiens (Human), UniProt P01116, C118A/G12C)
# assay-method-text: Coupled Nucleotide Exchange Assay
# Assay type: biochemical
# details: read-out: Coupled Exchange IC50 (20 h); 20 h compound pre-incubation
pIC50: −log10 of the molar value.
Label condition met when pIC50 >= 6; otherwise condition not met.

structure-notation	label-class
C=CC(=O)N1CC(NC(=O)Cn2cc(-c3ccccc3-c3ccccc3)c3cc(Br)cc(C)c32)C1	condition met
C=CC(=O)N1CC(NC(=O)Cn2ccc3ccc(Br)cc32)C1	condition not met
C=CC(=O)N1CC(NC(=O)Cn2c3ccc(Br)cc3c3ccc(Oc4cccnc4)nc32)C1	condition met
C=CC(=O)N1CC(NC(=O)Cn2c(C)c(C(=O)N3CCc4c(cccc4OC)C3)c3cc(Cl)ccc32)C1	condition met
C=CC(=O)N1CC(NC(=O)Cn2c(C)c(-c3ccccc3-c3ccccc3)c3cc(Cl)ccc32)C1	condition met

Prompt: Hi, just wondering whether C=CC(=O)N1CC(NC(=O)Cn2c(C)c(C(=O)N3CCc4c(cccc4OC)C3)c3cc(Br)ccc32)C1 shows pIC50 of 6 or higher.
Completion: condition met

Prompt: Hi, just wondering whether C=CC(=O)N1CC(NC(=O)Cn2c3ccc(Br)cc3c3cc(Br)ccc32)C1 shows pIC50 of 6 or higher.
Completion: condition met

Prompt: Hi, just wondering whether C=CC(=O)N1CC(NC(=O)Cn2c3c(c4cc(Br)ccc42)CCN(Cc2ccccc2)C3)C1 shows pIC50 of 6 or higher.
Completion: condition not met

Prompt: Hi, just wondering whether C=CC(=O)N1CC(NC(=O)Cn2ccc3c(F)c(Br)ccc32)C1 shows pIC50 of 6 or higher.
Completion: condition not met

Prompt: Hi, just wondering whether C=CC(=O)N1CC(NC(=O)Cn2ccc3ccccc32)C1 shows pIC50 of 6 or higher.
Completion: condition not met

Prompt: Hi, just wondering whether C=CC(=O)N1CC(NC(=O)Cn2ccc3cc(Br)ccc32)C1 shows pIC50 of 6 or higher.
Completion: condition not met

Prompt: Hi, just wondering whether C=CC(=O)N1CC(NC(=O)Cn2cc(I)c3ccccc32)C1 shows pIC50 of 6 or higher.
Completion: condition not met
